- Tested on: primary cortical neuronal cultured cells
- test_details: Test compound cytotoxicity, MTS assay, primary cortical neuronal cultures
- Format: cell-based, mouse
- test_conditions: 1 μM test compound
# note: boundary value 90% maps to False; Cytotox (% viable) Neuronal cells at 1 μM below it maps to True

Solved cases below.
1. Cc1ccccc1-c1cc(-c2ccccc2C)c2cccnc2c1O [PB 852] : False
2. Cc1nc(Cn2cnc3c(O)c(Cl)cc(Cl)c3c2=O)cs1 [PB-1084] : False

Q: Hello, is Cytotox (% viable) Neuronal cells at 1 μM of the following compound strictly smaller than 90%? O=c1c2c(Cl)cc(Cl)c(O)c2ncn1Cc1ccn2ccnc2c1 [PB 1252]
A: False

Q: Next record, please: CCNCc1ccc2c(Cl)cc(Cl)c(O)c2n1.Cl [PB 1051]
A: True

Q: Next record, please: O/N=C/c1ccc2cccc(O)c2n1 [PB 969]
A: False

Q: Next record, please: Br.CC(C)n1cnc2c(O)c(Cl)cc(Cl)c2c1=O [PB 1108]
A: False

###

Below: a set of entries, each annotated with reported BAS max effect.
- Test system: Abeta in extract of post-mortem human AD brain tissue
- test_details: BAS: human brain amyloid solubilization assay
- Format: biochemical
- test_conditions: max effect across the concentration range, referenced to baseline PBS
Enter your answer as a number in %; do not include the unit.

Q: Any idea what BAS max effect came out for `O=C(NC(=S)Nc1cccc2cccnc12)c1ccccc1` on Abeta in extract of post-mortem human AD brain tissue?
A: 202

Q: Next record, please: `O=C(CNC(=O)c1cc(O)c2cccc(O)c2n1)NCc1ccccn1`
A: 137

Q: Next record, please: `CN(C)c1ccc(/C=C/c2nc3ccccc3s2)cc1`
A: 265

Q: Next record, please: `CN1CCCN(C)CCN(C)CCCN(C)CC1`
A: 279

Q: Next record, please: `Oc1cccc2ccc(CNCc3ccccn3)nc12`
A: 222

Q: Next record, please: `O=C(NCCc1cnc[nH]1)c1ccc2cccc(O)c2n1`
A: 576

Q: Next record, please: `O=C(NCCc1cnc[nH]1)c1cc(O)c2cccc(O)c2n1`
A: 134

###

- experimental_system: Abeta:Zn (25:50 μM) Synthetic Aggregations (Homo sapiens, UniProt P05067)
- Construct: PB Compound Mediated Dissolution of Aggregated Abeta 1-42
- Sequence (P05067 672-713 limits assumed): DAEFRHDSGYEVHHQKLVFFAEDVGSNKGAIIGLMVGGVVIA
- test_details: Disaggregation of Abeta:Zn synthetic aggregates (ThT fluorescence)
- test_conditions: Abeta:Zn 25:50 μM aggregates
Below: a set of entries, each annotated with reported pEC50.
Field pEC50 (float): negative decimal logarithm of the concentration in molar.

1. CCCCc1cnc2c(O)cccn2c1=O : 5.04

// switching to the query molecule
Q: Form field: reported pEC50 of `CCn1cnc2c(O)c(I)ccc2c1=S`
A: 5.95

###

- experimental_system: Abeta:Zn (25:50 μM) Synthetic Aggregations (Homo sapiens)
- Construct: PB Compound Mediated Dissolution of Aggregated Abeta 1-42; purchased Keck Laboratory, Yale University School of Medicine
- test_details: Disaggregation of Abeta:Zn synthetic aggregates (ThT fluorescence)
- Type: biochemical
- test_conditions: 5 μM test compound
- Protocol: PB Compound Mediated Dissolution of Aggregated Abeta 1-42 Abeta1-42, is available from the Keck Laboratory, Yale University School of Medicine. PBS (pH 6.6): Sigma Cat# D-8662. Zn(ZnCl2): BDH Cat#100884E. […] By way of example of an amyloid composition, Abeta is dissolved in distilled water and peptide concentration is assessed by measured absorption at 214 nm in UV spectrometer. […] Samples are measured for ThT fluorescence using an LS55 (Perkin Elmer) fluorimeter in a cuvette (500 μl volume). […]
Below: a set of entries, each annotated with reported Disaggregation % Aggregate reduction at 5 μM.
Enter your answer as a number in %; do not include the unit.

Use the examples below as a reference point.
1. O=c1c2c(Cl)cc(I)c(O)c2ncn1CC1CC1 [PB 1140] : 64
2. Cc1noc(C)c1Cn1cnc2c(O)c(Cl)cc(Cl)c2c1=O [PB-1085] : 25
3. CCn1cnc2c(O)c(I)cc(Cl)c2c1=O [PB 1138] : 53
4. O=c1c2ccc(I)c(O)c2ncn1Cc1ccccn1 [PB 1122] : 62.4
5. Oc1c(I)cc(I)c2cccnc12 [PB 46] : 58.7
6. CCNCc1ccc2c(Cl)cc(Cl)c(O)c2n1.Cl [PB 1051] : 22.3
7. O=S(=O)(O)c1ccc(-c2ccnc3c2ccc2c(-c4ccc(S(=O)(=O)O)cc4)ccnc23)cc1 [PB 68] : 44
8. CCN(CC)CCNC(=O)c1cnc2c(O)cccn2c1=O [PB 1199] : 20.4
9. Oc1cccc2ccc(-c3ccccn3)nc12 [PB 1006] : 49.5
10. O=c1c2cccc(O)c2ncn1CC1CC1 [PB 1118] : 58

Q: Form field: reported Disaggregation % Aggregate reduction at 5 μM of Oc1cccc2sc(Cc3ccccc3)nc12 [PB 1191]
A: 10

Q: Next record, please: Oc1ccccc1-c1cn2ccccc2n1 [PB 1173]
A: 10

###

Below: a set of entries, each annotated with reported Cytotox (% viable) M17 cells at 10 μM.
- Test system: M17 human neuroblastoma cells
- test_details: Cytotoxicity, M17 human neuroblastoma cells
- Type: cell-based
- test_conditions: 10 μM test compound
Enter your answer as a number in %; do not include the unit.

Use the examples below as a reference point.
1) O=c1c2ccc(I)c(O)c2ncn1-c1ccc(F)cc1F : 80.3
2) O=c1c2cccc(O)c2ncn1-c1ccc(F)cc1 : 67.5
3) O=c1c2c(Cl)cc(Cl)c(O)c2ncn1Cc1ccccn1 : 91
4) CCN(CC)C(=O)Cn1cnc2c(O)c(I)ccc2c1=O : 98.7
5) CCCNC(=O)Cn1cnc2c(O)c(I)ccc2c1=O : 115.8
6) CCCCc1cnc2c(O)c(I)ccn2c1=O : 58.7
7) CCc1cnc2c(O)c(I)ccn2c1=O : 23.3
8) CCCc1cnc2c(O)c(I)ccn2c1=O : 47.6

// switching to the query compound
Q: Form field: reported Cytotox (% viable) M17 cells at 10 μM of `O=C1c2ccccc2C(=O)N1CCn1cnc2c(O)c(I)ccc2c1=O`
A: 104.8

###

- System: M17 human neuroblastoma cells
- test_details: Cytotoxicity, M17 human neuroblastoma cells
- Type: cell-based
- test_conditions: 1 μM test compound
# note: boundary value 90% maps to no (0); Cytotox (% viable) M17 cells at 1 μM below it maps to yes (1)

1) O=c1c(-c2ccc(Cl)cc2)cnc2c(O)cccn12 : yes (1)

Q: Hello, is Cytotox (% viable) M17 cells at 1 μM of the following compound strictly smaller than 90%? `O=c1c2ccc(I)c(O)c2ncn1Cc1ccccn1`
A: no (0)

Q: Next record, please: `CCc1cnc2c(O)cccn2c1=S`
A: no (0)

Q: Next record, please: `Cc1noc(C)c1Cn1cnc2c(O)c(Cl)cc(Cl)c2c1=O`
A: no (0)

###

- System: M17 human neuroblastoma cells
- test_details: Cytotoxicity, M17 human neuroblastoma cells
- Format: cell-based
- test_conditions: 1 μM test compound
Below: a set of entries, each annotated with reported Cytotox (% viable) M17 cells at 1 μM.
Enter your answer as a number in %; do not include the unit.

Use the examples below as a reference point.
1) CCN(CC)CCn1cnc2c(O)c(I)ccc2c1=O : 106.5
2) O=c1c2c(Cl)cc(Cl)c(O)c2ncn1Nc1ccc(F)cc1F : 108.1
3) Br.CN(C)Cc1nc2c(O)c(Cl)cc(Cl)c2c(=O)n1C : 109.3
4) O=C1c2ccccc2C(=O)N1CCn1cnc2c(O)c(I)ccc2c1=O : 127.4
5) CCc1cnc2c(O)cccn2c1=O : 96.1
6) O=C(NCc1ccc(F)cc1)c1cnc2c(O)c(I)ccn2c1=O : 104.7

Q: Form field: reported Cytotox (% viable) M17 cells at 1 μM of `Cc1nc(Cn2cnc3c(O)c(Cl)cc(Cl)c3c2=O)cs1`
A: 97

Q: Next record, please: `O=c1c2c(Cl)cc(Cl)c(O)c2ncn1Cc1nc2ccccc2s1`
A: 111.1

Q: Next record, please: `O=c1c2c(Cl)cc(Cl)c(O)c2ncn1Cc1ccncc1`
A: 105.4

Q: Next record, please: `O=c1c2c(Cl)cc(Cl)c(O)c2ncn1CC1CC1`
A: 96.2

Q: Next record, please: `O=c1c2c(Cl)cc(Cl)c(O)c2ncn1Cc1cccc(Cn2cnc3c(O)c(Cl)cc(Cl)c3c2=O)n1`
A: 94.9

###

- System: M17 human neuroblastoma cells
- test_details: Cytotoxicity, M17 human neuroblastoma cells
- Format: cell-based
- test_conditions: 10 μM test compound
Below: a set of entries, each annotated with reported Cytotox (% viable) M17 cells at 10 μM.
Enter your answer as a number in %; do not include the unit.

Use the examples below as a reference point.
1) Br.CNCc1nc2c(O)c(Cl)cc(Cl)c2c(=O)n1C : 112.5
2) O=c1c(-c2ccc(Cl)cc2)cnc2c(O)cccn12 : 25.8
3) O=C(Cn1cnc2c(O)cccc2c1=O)Nc1ccccn1 : 98.2
4) CC(C)Cn1cnc2c(O)c(I)ccc2c1=O : 71.2
5) O=C(O)CCCn1cnc2c(O)c(Cl)cc(Cl)c2c1=O : 102.9

Q: Form field: reported Cytotox (% viable) M17 cells at 10 μM of `O=c1c2c(Cl)cc(Cl)c(O)c2ncn1Cc1cn2ccccc2n1`
A: 98.2
